# Target Under Test: Cellular tumor antigen p53 (Homo sapiens) (UniProt P04637)
# Sequence (P04637 whole entry, looked up): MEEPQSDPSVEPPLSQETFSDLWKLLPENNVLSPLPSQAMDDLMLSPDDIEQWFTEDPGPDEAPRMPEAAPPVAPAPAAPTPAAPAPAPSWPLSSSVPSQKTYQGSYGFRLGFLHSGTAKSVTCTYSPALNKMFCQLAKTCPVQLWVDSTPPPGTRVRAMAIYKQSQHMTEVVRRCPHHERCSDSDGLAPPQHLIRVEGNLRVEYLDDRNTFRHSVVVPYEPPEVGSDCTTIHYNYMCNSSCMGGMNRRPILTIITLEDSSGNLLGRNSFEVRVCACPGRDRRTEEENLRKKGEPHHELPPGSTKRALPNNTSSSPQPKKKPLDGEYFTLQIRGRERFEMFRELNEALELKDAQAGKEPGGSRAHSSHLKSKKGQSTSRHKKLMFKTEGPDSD
# Protocol: TOX21_p53_BLA_p2_ratio: Tox21 HCT-116 p53 Agonism Beta-lactamase Assay, Ratio, Phase 2 (AID 2283592)
# Method: TOX21_p53_BLA_p2 is a cell-based, single-readout assay that uses HCT116, a human intestinal cell line, […] in a 1536-well plate.TOX21_p53_BLA_p2_ratio is an assay readout measuring reporter gene via receptor activity and designed using inducible reporter (beta lactamase induction) detected with GAL4 b-lactamase reporter gene. […] This assay endpoint, TOX21_p53_BLA_p2_ratio, was analyzed in the positive analysis fitting direction relative to DMSO as the negative control and baseline of activity. […]
Records with an inconclusive call do not appear. Active and inactive are the calls of the source. Rule for the calls: active = hit-call score of the fitted dose curve at least 0.9, where 1 is the maximum; inconclusive = response in the unintended direction; inactive = score below 0.9.

Smiles Code: C[C@]12CCC(=O)C=C1CC[C@@H]1[C@@H]2CC[C@]2(C)C(=O)CC[C@@H]12
Target Under Test: Cellular tumor antigen p53 (Homo sapiens) (UniProt P04637)
outcome: inactive
//
Smiles Code: O=C(O)C(F)(F)C(F)(F)C(F)(F)C(F)(F)C(F)(F)C(F)(F)C(F)(F)C(F)(F)C(F)(F)F
Target Under Test: Cellular tumor antigen p53 (Homo sapiens) (UniProt P04637)
outcome: inactive
//
Smiles Code: CCCCCCCCCc1ccc(O)cc1
Target Under Test: Cellular tumor antigen p53 (Homo sapiens) (UniProt P04637)
outcome: inactive
//
Smiles Code: Cc1cccc(C)c1N
Target Under Test: Cellular tumor antigen p53 (Homo sapiens) (UniProt P04637)
outcome: inactive
//
Smiles Code: Clc1ccc(C(Cl)(Cl)Cl)cc1
Target Under Test: Cellular tumor antigen p53 (Homo sapiens) (UniProt P04637)
outcome: inactive
//
Smiles Code: CCCCCCCCOC(=O)c1ccccc1C(=O)OCCCCCCCC
Target Under Test: Cellular tumor antigen p53 (Homo sapiens) (UniProt P04637)
outcome: inactive

* * *

# Read-out: CYP2C8 (gene 1558)
# Protocol: LTEA_HepaRG_CYP2C8: Life Technologies and Expression Analysis (LTEA) Assay for CYP2C8 using HepaRG (AID 2283483)
# Condition Context: mRNA level, 48 h; actives raise or lower the signal
Calls of active or inactive are those of the source. Rule for the calls: active = hit-call score of the fitted dose curve at least 0.9, where 1 is the maximum; inactive = score below 0.9.
Property Measured: outcome

Smiles Code: O=NN(c1ccccc1)c1ccccc1
Data Value: inactive
//
Smiles Code: O=C(NC(=O)c1c(F)cccc1F)Nc1cc(Cl)c(OC(F)(F)C(F)F)c(Cl)c1
Data Value: inactive
//
Smiles Code: C[C@]12CCC(=O)C=C1CC[C@@H]1[C@@H]2CC[C@@]2(C)[C@H]1CC[C@]2(C)O
Data Value: inactive

* * *

# Read-out: Matrix Metallopeptidase 1 (MMP1), MMP1 (gene 4312)
# Protocol: BSK_BE3C_MMP1: BioMAP Diversity Plus: BE3C Assay for Matrix Metallopeptidase 1 (MMP1) Biomarker Activity (AID 2283024)
# Condition Context: primary human bronchial epithelial cells; actives raise or lower the signal
Activity calls are given as the source filed them. Rule for the calls: active = hit-call score of the fitted dose curve at least 0.9, where 1 is the maximum; inactive = score below 0.9.

Smiles Code: CCOP(=S)(OCC)SCSC(C)(C)C
outcome: inactive

Smiles Code: Cc1ccccc1O
outcome: inactive

Smiles Code: Cc1ccc(O)c(C)c1
outcome: inactive

Smiles Code: CC#Cc1cc(C)nc(Nc2ccccc2)n1
outcome: inactive

Smiles Code: Nn1cnnc1
outcome: inactive

* * *

# Read-out: Hypoxia-inducible factor 1-alpha (Homo sapiens) (UniProt Q16665)
# Sequence (Q16665 whole entry, looked up): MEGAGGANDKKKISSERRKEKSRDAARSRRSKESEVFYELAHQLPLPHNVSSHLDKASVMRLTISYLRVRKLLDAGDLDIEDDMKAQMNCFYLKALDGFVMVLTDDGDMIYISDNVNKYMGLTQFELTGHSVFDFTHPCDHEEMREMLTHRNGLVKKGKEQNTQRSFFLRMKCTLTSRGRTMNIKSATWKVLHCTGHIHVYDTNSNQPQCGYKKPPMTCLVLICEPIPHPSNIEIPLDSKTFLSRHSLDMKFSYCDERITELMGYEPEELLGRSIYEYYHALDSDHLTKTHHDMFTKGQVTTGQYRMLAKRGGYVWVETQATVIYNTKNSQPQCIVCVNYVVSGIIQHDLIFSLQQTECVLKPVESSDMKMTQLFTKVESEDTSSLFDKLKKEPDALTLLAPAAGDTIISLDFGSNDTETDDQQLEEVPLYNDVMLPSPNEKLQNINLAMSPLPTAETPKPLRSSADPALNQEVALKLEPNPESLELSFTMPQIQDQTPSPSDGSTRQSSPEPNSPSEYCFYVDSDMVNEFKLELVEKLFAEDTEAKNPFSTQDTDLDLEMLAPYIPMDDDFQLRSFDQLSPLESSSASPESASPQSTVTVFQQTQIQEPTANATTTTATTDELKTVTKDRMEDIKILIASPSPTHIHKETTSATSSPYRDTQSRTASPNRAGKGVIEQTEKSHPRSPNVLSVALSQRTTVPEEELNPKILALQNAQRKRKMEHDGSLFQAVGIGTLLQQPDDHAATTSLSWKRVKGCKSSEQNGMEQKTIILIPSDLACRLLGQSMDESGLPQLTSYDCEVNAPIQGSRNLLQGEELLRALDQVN
# Protocol: LTEA_HepaRG_HIF1A: Life Technologies and Expression Analysis (LTEA) Assay for Hypoxia-inducible factor 1 (HIF1A) Trancription factor using HepaRG (AID 2283503);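 note: HIF1A transcript by TaqMan qRT-PCR normalized to ACTB GAPDH and POLR2A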
# Condition Context: mRNA level, 48 h; actives raise or lower the signal
Active and inactive are the calls of the source. The calls were made as follows: active = hit-call score of the fitted dose curve at least 0.9, where 1 is the maximum; inactive = score below 0.9.
Classes used: active, inactive

Compound: COS(=O)(=O)OC
Category Label: inactive
//
Compound: O=C(N[C@H]1CN2CCC1CC2)c1cc2ccoc2cn1
Category Label: inactive
//
Compound: ClC(Cl)=C(c1ccc(Cl)cc1)c1ccc(Cl)cc1
Category Label: inactive
//
Compound: Clc1ccc(Cl)cc1
Category Label: inactive
//
Compound: C=CC(N)=O
Category Label: inactive
//
Compound: C=CC(=O)NCNC(=O)C=C
Category Label: active
//
Compound: ClC1=C(Cl)[C@]2(Cl)[C@@H]3[C@H]4C[C@H]([C@@H]5O[C@H]45)[C@@H]3[C@@]1(Cl)C2(Cl)Cl
Category Label: inactive
//
Compound: ClC1=C(Cl)[C@]2(Cl)[C@@H]3[C@@H]4C[C@@H]([C@H]5O[C@@H]45)[C@@H]3[C@@]1(Cl)C2(Cl)Cl
Category Label: active
//
Compound: CCCCCCCCCc1ccc(O)cc1
Category Label: inactive
//
Compound: Cc1ccc(O)c(C)c1
Category Label: inactive
//
Compound: ClC1=C(Cl)[C@]2(Cl)[C@@H]3[C@@H](Cl)[C@H]4O[C@H]4[C@@H]3C1(Cl)C2(Cl)Cl
Category Label: inactive
//
Compound: CC(C)(c1ccccc1)c1ccc(O)cc1
Category Label: inactive
//
Compound: NS(=O)(=O)C(F)(F)C(F)(F)C(F)(F)C(F)(F)C(F)(F)C(F)(F)C(F)(F)C(F)(F)F
Category Label: active
//
Compound: Cc1cc2c3c(c1)C(c1ccccc1)=N[C@@H](NC(=O)c1ccncc1)C(=O)N3CC2
Category Label: inactive
//
Compound: Oc1ccc(C(c2ccc(O)cc2)(C(F)(F)F)C(F)(F)F)cc1
Category Label: active
//
Compound: Cc1ccccc1[N+](=O)[O-]
Category Label: inactive
//
Compound: Cc1cccc([N+](=O)[O-])c1
Category Label: inactive
//
Compound: N#Cc1ccc(N(CC(N)=O)CC(F)(F)F)cc1C(F)(F)F
Category Label: inactive
//
Compound: O=S(=O)(O)C(F)(F)C(F)(F)C(F)(F)C(F)(F)F
Category Label: inactive
//
Compound: C[C@]12CCC(=O)C=C1CC[C@@H]1[C@@H]2CC[C@@]2(C)[C@H]1CC[C@]2(C)O
Category Label: inactive
//
Compound: Oc1c(Cl)c(Cl)c(Cl)c(Cl)c1Cl
Category Label: active
//
Compound: CC1=C2C[C@H]3[C@@H](CC=C4C[C@@H](O)CC[C@@]43C)[C@@H]2CC[C@]12O[C@@H]1C[C@H](C)CN[C@H]1[C@H]2C
Category Label: inactive
//
Compound: CCC(C)c1cc([N+](=O)[O-])cc([N+](=O)[O-])c1O (centres undefined)
Category Label: active
//
Compound: c1cc2ccc3cccc4ccc(c1)c2c34
Category Label: inactive

* * *

# Read-out: Pro-epidermal growth factor (Homo sapiens) (UniProt P01133)
# Protocol: LTEA_HepaRG_EGF: Life Technologies and Expression Analysis (LTEA) Assay for Epidermal growth factor (EGF) using HepaRG (AID 2283489)
# Condition Context: mRNA level, 48 h; actives raise or lower the signal
Active and inactive are the calls of the source. The calls were made as follows: active = hit-call score of the fitted dose curve at least 0.9, where 1 is the maximum; inactive = score below 0.9.
Classes used: Yes for active, No for inactive

Smiles Code: Cc1cc(-c2ccc(N)c(C)c2)ccc1N
Category Label: No
//
Smiles Code: CCC(=O)O[C@H]1CC[C@H]2[C@@H]3CCC4=CC(=O)CC[C@]4(C)[C@H]3CC[C@]12C
Category Label: No
//
Smiles Code: CCOP(=S)(OCC)SCSC(C)(C)C
Category Label: No
//
Smiles Code: Oc1ccc(C(c2ccc(O)cc2)(C(F)(F)F)C(F)(F)F)cc1
Category Label: Yes
//
Smiles Code: Clc1ccc(C(Cl)(Cl)Cl)cc1
Category Label: No
//
Smiles Code: CN(C)c1nc(=O)n(C2CCCCC2)c(=O)n1C
Category Label: No
//
Smiles Code: CCC(C)(CC)c1cc(NC(=O)c2c(OC)cccc2OC)on1
Category Label: No
//
Smiles Code: Nn1cnnc1
Category Label: No
//
Smiles Code: CCCCCCCCCC[N+](C)(C)CCCCCCCCCC
Category Label: No
//
Smiles Code: ClC(Cl)=C(c1ccc(Cl)cc1)c1ccc(Cl)cc1
Category Label: No
//
Smiles Code: O=NN(c1ccccc1)c1ccccc1
Category Label: No
//
Smiles Code: CN(C)CCO
Category Label: No
//
Smiles Code: CCNc1nc(NC(C)C)nc(SC)n1
Category Label: No

* * *

# Target Under Test: Androgen Receptor/SRC-1 Co-activator, AR (gene 367)
# Protocol: OT_AR_ARSRC1_0960: Odyssey Thera (OT) 16-hour HEK293T Protein-Complementation Assay for Androgen Receptor/SRC-1 Co-activator (AID 2283353);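 note: actives raise the signal above DMSO so potency reflects increased AR and SRC-1 complex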
The source made the active and inactive calls. Rule for the calls: active = hit-call score of the fitted dose curve at least 0.9, where 1 is the maximum; inconclusive = response in the unintended direction; inactive = score below 0.9.
Classes used: y (active), n (inactive)

Smiles Code: C=CC(=O)NCNC(=O)C=C
Target Under Test: Androgen Receptor/SRC-1 Co-activator, AR (gene 367)
Category Label: n
//
Smiles Code: c1ccc(-c2ccccc2)cc1
Target Under Test: Androgen Receptor/SRC-1 Co-activator, AR (gene 367)
Category Label: n
//
Smiles Code: Cc1ccccc1CO[C@@H]1C[C@@]2(C(C)C)CC[C@]1(C)O2
Target Under Test: Androgen Receptor/SRC-1 Co-activator, AR (gene 367)
Category Label: y
//
Smiles Code: c1cc2ccc3cccc4ccc(c1)c2c34
Target Under Test: Androgen Receptor/SRC-1 Co-activator, AR (gene 367)
Category Label: n
//
Smiles Code: NS(=O)(=O)C(F)(F)C(F)(F)C(F)(F)C(F)(F)C(F)(F)C(F)(F)C(F)(F)C(F)(F)F
Target Under Test: Androgen Receptor/SRC-1 Co-activator, AR (gene 367)
Category Label: y
//
Smiles Code: CCNc1nc(NC(C)C)nc(SC)n1
Target Under Test: Androgen Receptor/SRC-1 Co-activator, AR (gene 367)
Category Label: n
